Where these numbers come from: PubChem BioAssay (NCATS)

Assay: Stat Signaling Pathway (AID 446);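 further: ME-180 cervical cancer cells given 40 pM IL-6 alongside compound; SIE-controlled beta-lactamase reporter measured as 460/530 nm FRET emission ratio; on the % scale 0 is the no-effect control and ±100 the full control effect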
Conditions: ME-180 (cervical carcinoma) SIE beta-lactamase reporter, IL-6 stimulated, 5 h; at 17.2 µM (top of the series) unless noted
Inconclusive results are not listed.
Entries and their activity, negative = inhibition values follow.
endpoint.name: activity, negative = inhibition (%)

compound=Cc1cc(=O)oc2cc(OCC(=O)NCc3cccnc3)ccc12 value_reported=-2.73
compound=COc1nc(N(C)S(=O)(=O)c2ccc(C)cc2)nc(C)c1Cl value_reported=5.02
compound="CC(C)CC(C(=O)O)C(C)CC(=O)Nc1ccn(-c2ccccc2)n1 (stereo unspecified)" value_reported=7.28
compound=CCOC(=O)CSc1nnc(C)c(=O)[nH]1 value_reported=-1.23
compound=Cc1cccc(OCC(=O)N2CCC(N3CCOCC3)CC2)c1 value_reported=2.76
compound="Cn1c2c(c(=O)n(C)c1=O)C(NC(=O)c1cccs1)(C(F)(F)F)C(=O)N2 (stereo unspecified)" value_reported=5.6
